Reference source for all entries: the kinase profiling compilation of Christmann-Franck et al. (2016)

Reported residual activity values for a set of molecules
- systemUnderTest: NEK9 (human)
- protocolDetails: radiometric filter-binding kinase assay, Kinase HotSpot
- recordedConditions: compound 0.5 µM; ATP 10 µM
// units = %; emit number, no label

// worked examples, residual activity included
molecule=O=C1NC(=O)C(c2c[nH]c3ccccc23)=C1c1c[nH]c2ccccc12 datavalue=97.3
molecule=O=C(Nc1cccc(Nc2cc(Nc3cccc(C(F)(F)F)c3)ncn2)c1)C1CC1 datavalue=101
molecule=Cn1sc(=O)n(Cc2ccccc2)c1=O datavalue=98.2
molecule=Oc1ccc(Nc2nc(-c3ccc(Cl)cc3)cs2)cc1 datavalue=90.6
molecule=CCn1cnc2c(Nc3cccc(Cl)c3)nc(N[C@@H]3CCCC[C@@H]3N)nc21 datavalue=95.4

query: Query (molecule): O=C1Cc2c([nH]c3ccc(Br)cc23)-c2ccccc2N1 ; field requested: residual activity
result: 94

query: COc1ccc(OC)c2c(=S)c3ccccc3[nH]c12 ?
result: 95.8

query: COc1cc2ncc(-c3ccccc3)nc2cc1OC ?
result: 93.5

query: CC(C)c1nn(-c2c(Cl)cccc2Cl)c2nc(Cc3ccc(OCCO)cc3)nc(O)c12 ?
result: 97.3

query: CN([C@@H](Cc1ccc(OS(=O)(=O)c2cccc3cnccc23)cc1)C(=O)N1CCN(c2ccccc2)CC1)S(=O)(=O)c1cccc2cnccc12 ?
result: 97.6

query: Cc1nc2cc3nc(-c4cccs4)cnc3cc2n1C ?
result: 105

query: CCN(CC)CCCCN1c2ccccc2Oc2ccc(Cl)cc21 ?
result: 98.8

query: O=C1Nc2ccccc2/C1=C1/Nc2ccccc2/C1=N\OCCC(O)CO (configuration not stated) ?
result: 73.6

query: Cn1cnc2cc3c(Nc4cccc(Br)c4)ncnc3cc21 ?
result: 90

query: CN(C)C[C@H]1CCn2c(c(C3=C(c4cn(C)c5ccccc45)C(=O)NC3=O)c3ccccc32)C1 ?
result: 97.6

query: O=C(CCCc1ccc(-c2ccccc2F)cc1)Nc1ccc(O)cc1 ?
result: 92.7

query: O=C1NC(=O)/C(=C\c2ccc3nccnc3c2)S1 ?
result: 111

query: CC(C)[C@H](CO)Nc1nc(Nc2cc(N)cc(Cl)c2)c2ncn(C(C)C)c2n1 ?
result: 69.4

---

- systemUnderTest: SLK (human) (UniProt Q9H2G2)
- Sequence (Q9H2G2 whole entry, looked up): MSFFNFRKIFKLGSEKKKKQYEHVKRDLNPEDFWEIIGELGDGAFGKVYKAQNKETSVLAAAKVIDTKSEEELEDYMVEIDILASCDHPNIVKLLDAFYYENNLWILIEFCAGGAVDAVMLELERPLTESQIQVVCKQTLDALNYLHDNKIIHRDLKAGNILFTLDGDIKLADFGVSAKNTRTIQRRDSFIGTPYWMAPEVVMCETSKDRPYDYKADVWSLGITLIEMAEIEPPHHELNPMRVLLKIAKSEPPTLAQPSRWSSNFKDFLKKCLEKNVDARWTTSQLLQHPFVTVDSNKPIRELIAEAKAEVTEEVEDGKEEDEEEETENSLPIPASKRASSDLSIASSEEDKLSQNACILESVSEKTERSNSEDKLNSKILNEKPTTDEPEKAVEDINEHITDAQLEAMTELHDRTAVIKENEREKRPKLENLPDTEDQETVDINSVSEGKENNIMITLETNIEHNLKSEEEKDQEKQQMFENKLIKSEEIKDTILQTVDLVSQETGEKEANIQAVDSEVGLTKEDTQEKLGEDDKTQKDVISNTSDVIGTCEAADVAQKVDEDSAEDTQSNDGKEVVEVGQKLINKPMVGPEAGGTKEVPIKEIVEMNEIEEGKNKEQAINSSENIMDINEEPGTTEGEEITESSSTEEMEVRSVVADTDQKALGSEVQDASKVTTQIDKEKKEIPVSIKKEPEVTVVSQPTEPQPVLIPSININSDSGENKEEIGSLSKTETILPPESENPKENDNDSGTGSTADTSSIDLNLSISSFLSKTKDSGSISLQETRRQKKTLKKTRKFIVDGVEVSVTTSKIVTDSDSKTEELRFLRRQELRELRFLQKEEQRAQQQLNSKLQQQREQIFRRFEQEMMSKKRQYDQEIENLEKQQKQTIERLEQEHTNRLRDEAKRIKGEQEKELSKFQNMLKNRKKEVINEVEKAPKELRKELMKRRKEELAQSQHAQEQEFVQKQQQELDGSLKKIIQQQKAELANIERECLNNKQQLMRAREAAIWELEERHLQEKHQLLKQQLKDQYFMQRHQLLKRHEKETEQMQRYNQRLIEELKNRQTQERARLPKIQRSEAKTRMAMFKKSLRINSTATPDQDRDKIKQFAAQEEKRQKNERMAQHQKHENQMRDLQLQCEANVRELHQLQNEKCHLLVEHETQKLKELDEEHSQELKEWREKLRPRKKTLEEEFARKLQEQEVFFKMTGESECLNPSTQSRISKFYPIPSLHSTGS
- protocolDetails: radiometric filter-binding kinase assay, Kinase HotSpot
- recordedConditions: compound 0.5 µM; ATP 10 µM
readoutKind: residual activity (%)
// units = %; emit number, no label

// worked examples, residual activity included
smilesdata=CC(C)[C@H](CO)Nc1nc(Nc2cc(N)cc(Cl)c2)c2ncn(C(C)C)c2n1 readoutkind="residual activity" datavalue=39.8
smilesdata=Cc1nc2cc3nc(-c4cccs4)cnc3cc2n1C readoutkind="residual activity" datavalue=94.5
smilesdata=O=C(O)/C=C/c1cc(Br)c(Br)c(Br)c1Br readoutkind="residual activity" datavalue=96

Next up:
query: Query (compound): Cn1nc2c3c(cccc31)C(=O)c1ccccc1-2 ; field requested: residual activity
result: 103

---

- systemUnderTest: MELK (human) (UniProt Q14680)
- Sequence (Q14680 whole entry, looked up): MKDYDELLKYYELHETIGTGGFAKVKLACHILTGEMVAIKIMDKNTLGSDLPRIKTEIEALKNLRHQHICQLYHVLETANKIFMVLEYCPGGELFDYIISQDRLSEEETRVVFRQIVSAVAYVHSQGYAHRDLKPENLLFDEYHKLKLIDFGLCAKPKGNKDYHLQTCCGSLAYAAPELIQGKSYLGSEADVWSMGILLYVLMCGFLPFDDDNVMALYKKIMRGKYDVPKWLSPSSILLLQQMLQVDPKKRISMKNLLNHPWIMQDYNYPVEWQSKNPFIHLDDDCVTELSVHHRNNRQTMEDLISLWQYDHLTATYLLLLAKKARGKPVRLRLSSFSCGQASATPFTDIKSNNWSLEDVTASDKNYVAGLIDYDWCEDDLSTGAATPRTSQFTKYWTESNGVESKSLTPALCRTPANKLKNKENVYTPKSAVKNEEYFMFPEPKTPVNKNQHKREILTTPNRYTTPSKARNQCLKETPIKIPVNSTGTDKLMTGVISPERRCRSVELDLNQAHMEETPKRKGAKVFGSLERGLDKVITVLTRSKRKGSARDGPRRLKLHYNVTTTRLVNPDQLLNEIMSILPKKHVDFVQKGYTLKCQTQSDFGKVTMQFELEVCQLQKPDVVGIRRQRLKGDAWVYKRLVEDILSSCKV
- protocolDetails: radiometric filter-binding kinase assay, Kinase HotSpot
- recordedConditions: compound 0.5 µM; ATP 10 µM
readoutKind: residual activity (%)
// units = %; emit number, no label

// worked examples, residual activity included
smilesdata=Nc1nnc2[nH]c3ccccc3nc1-2 datavalue=92.9
smilesdata=O=C1NC(=O)C(c2c[nH]c3ccccc23)=C1c1c[nH]c2ccccc12 datavalue=82
smilesdata=O=C(Nc1cccc(Nc2cc(Nc3cccc(C(F)(F)F)c3)ncn2)c1)C1CC1 datavalue=104
smilesdata=Oc1ccc(Nc2nc(-c3ccc(Cl)cc3)cs2)cc1 datavalue=100
smilesdata=O=C1Cc2c([nH]c3ccc(Br)cc23)-c2ccccc2N1 datavalue=74.8
smilesdata=O=C1NC(=O)/C(=C\c2ccc3nccnc3c2)S1 datavalue=90.7
smilesdata=CC(C)c1nn(-c2c(Cl)cccc2Cl)c2nc(Cc3ccc(OCCO)cc3)nc(O)c12 datavalue=84
smilesdata=COc1ccc(OC)c2c(=S)c3ccccc3[nH]c12 datavalue=96.6

query: Query (molecule): Cn1cnc2cc3c(Nc4cccc(Br)c4)ncnc3cc21 ; field requested: residual activity
result: 89

query: COc1cc2ncnc(N3CCN(C(=O)Nc4ccc(Oc5ccccc5)cc4)CC3)c2cc1OC ?
result: 94.9

query: CC(=O)O/N=C1\C(=C2\C(=O)Nc3cc(Br)ccc32)Nc2ccccc21 ?
result: 93.9

---

Reported residual activity values for a set of compounds
- systemUnderTest: AKT1 (human)
- protocolDetails: radiometric filter-binding kinase assay, Kinase HotSpot
- recordedConditions: compound 0.5 µM; ATP 10 µM
// units = %; emit number, no label

// worked examples, residual activity included
compound=O=C1NC(=O)C(c2c[nH]c3ccccc23)=C1c1c[nH]c2ccccc12 readoutkind="residual activity" unitname=% datavalue=87.7
compound=O=C1NC(=O)C(c2cn(CCCO)c3ncccc23)=C1c1cnccn1 readoutkind="residual activity" unitname=% datavalue=98.6
compound=COc1cc2ncc(-c3ccccc3)nc2cc1OC readoutkind="residual activity" unitname=% datavalue=99.2

query: Provide the documented residual activity with AKT1 (human) as the system for Cn1cnc2cc3c(Nc4cccc(Br)c4)ncnc3cc21
result: 89.1

query: CC(C)c1nn(-c2c(Cl)cccc2Cl)c2nc(Cc3ccc(OCCO)cc3)nc(O)c12 ?
result: 94.7

query: O=C(O)/C=C/c1cc(Br)c(Br)c(Br)c1Br ?
result: 97.4

query: CN(C)C[C@H]1CCn2c(c(C3=C(c4cn(C)c5ccccc45)C(=O)NC3=O)c3ccccc32)C1 ?
result: 98.7

query: O=C1NC(=O)/C(=C\c2ccc3nccnc3c2)S1 ?
result: 98.3

query: CC(C)[C@H](CO)Nc1nc(Nc2cc(N)cc(Cl)c2)c2ncn(C(C)C)c2n1 ?
result: 117

query: CC(=O)O/N=C1\C(=C2\C(=O)Nc3cc(Br)ccc32)Nc2ccccc21 ?
result: 99.6

query: O=C1Cc2c([nH]c3ccc(Br)cc23)-c2ccccc2N1 ?
result: 99.9

query: O=C1Nc2ccccc2/C1=C1/Nc2ccccc2/C1=N\OCCC(O)CO (configuration not stated) ?
result: 95.6

---

- systemUnderTest: TAOK2 (human) (UniProt Q9UL54)
- Sequence (Q9UL54 whole entry, looked up): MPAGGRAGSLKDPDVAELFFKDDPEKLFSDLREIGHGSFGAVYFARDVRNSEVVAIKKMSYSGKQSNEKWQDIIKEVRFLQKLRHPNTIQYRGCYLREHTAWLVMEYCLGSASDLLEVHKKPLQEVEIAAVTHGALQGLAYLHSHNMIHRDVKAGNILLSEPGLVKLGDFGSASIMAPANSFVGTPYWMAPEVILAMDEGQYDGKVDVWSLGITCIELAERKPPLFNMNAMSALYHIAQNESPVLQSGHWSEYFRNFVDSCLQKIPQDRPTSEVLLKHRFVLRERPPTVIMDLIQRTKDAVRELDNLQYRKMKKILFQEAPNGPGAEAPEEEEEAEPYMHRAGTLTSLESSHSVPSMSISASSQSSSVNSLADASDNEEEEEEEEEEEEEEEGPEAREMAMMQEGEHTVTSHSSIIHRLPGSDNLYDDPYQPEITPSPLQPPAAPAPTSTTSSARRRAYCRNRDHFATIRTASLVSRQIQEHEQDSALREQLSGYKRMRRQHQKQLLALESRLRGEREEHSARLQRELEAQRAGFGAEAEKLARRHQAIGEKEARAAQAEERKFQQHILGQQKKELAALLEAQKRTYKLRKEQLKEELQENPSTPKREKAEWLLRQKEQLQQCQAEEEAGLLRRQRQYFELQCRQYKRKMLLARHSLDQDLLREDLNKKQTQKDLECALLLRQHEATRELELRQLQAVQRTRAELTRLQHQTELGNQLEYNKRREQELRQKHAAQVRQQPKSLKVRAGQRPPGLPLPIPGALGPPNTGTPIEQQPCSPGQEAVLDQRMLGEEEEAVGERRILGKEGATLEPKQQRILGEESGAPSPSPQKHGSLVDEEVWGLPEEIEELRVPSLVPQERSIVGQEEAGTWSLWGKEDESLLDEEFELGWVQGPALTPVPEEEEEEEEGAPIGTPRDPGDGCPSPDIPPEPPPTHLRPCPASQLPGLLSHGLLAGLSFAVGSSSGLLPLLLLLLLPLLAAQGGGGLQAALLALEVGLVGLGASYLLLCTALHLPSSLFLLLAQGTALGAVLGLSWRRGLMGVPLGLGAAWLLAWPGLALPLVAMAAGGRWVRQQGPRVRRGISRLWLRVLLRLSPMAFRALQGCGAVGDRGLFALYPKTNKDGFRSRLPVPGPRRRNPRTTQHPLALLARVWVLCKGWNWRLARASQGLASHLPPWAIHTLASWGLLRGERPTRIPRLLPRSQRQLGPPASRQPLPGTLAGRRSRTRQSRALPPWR
- protocolDetails: radiometric filter-binding kinase assay, Kinase HotSpot
- recordedConditions: compound 0.5 µM; ATP 10 µM
Reported residual activity values for a set of molecules
// units = %; emit number, no label

molecule=O=C(Nc1cccc(Nc2cc(Nc3cccc(C(F)(F)F)c3)ncn2)c1)C1CC1 readoutkind="residual activity" datavalue=103
molecule="O=C1Nc2ccccc2/C1=C1/Nc2ccccc2/C1=N\\OCCC(O)CO (stereo unspecified)" readoutkind="residual activity" datavalue=83.4

query: Query (molecule): CCN(CC)CCCCN1c2ccccc2Oc2ccc(Cl)cc21 ; field requested: residual activity
result: 95.3

---

- systemUnderTest: PIM2 (human)
- protocolDetails: radiometric filter-binding kinase assay, Kinase HotSpot
- recordedConditions: compound 0.5 µM; ATP 10 µM
Reported residual activity values for a set of compounds
// units = %; emit number, no label

// worked examples, residual activity included
smilesdata=COc1cc2ncc(-c3ccccc3)nc2cc1OC unitname=% datavalue=101
smilesdata=O=C1NC(=O)C(c2cn(CCCO)c3ncccc23)=C1c1cnccn1 unitname=% datavalue=92.7
smilesdata=O=C(O)/C=C/c1cc(Br)c(Br)c(Br)c1Br unitname=% datavalue=52.8
smilesdata=O=C(Nc1cccc(Nc2cc(Nc3cccc(C(F)(F)F)c3)ncn2)c1)C1CC1 unitname=% datavalue=104

query: Query (compound): O=C1Nc2ccccc2/C1=C1\Nc2ccccc2\C1=N/O ; field requested: residual activity
result: 106

---

- systemUnderTest: SIK2 (human) (UniProt Q9H0K1)
- Sequence (Q9H0K1 whole entry, looked up): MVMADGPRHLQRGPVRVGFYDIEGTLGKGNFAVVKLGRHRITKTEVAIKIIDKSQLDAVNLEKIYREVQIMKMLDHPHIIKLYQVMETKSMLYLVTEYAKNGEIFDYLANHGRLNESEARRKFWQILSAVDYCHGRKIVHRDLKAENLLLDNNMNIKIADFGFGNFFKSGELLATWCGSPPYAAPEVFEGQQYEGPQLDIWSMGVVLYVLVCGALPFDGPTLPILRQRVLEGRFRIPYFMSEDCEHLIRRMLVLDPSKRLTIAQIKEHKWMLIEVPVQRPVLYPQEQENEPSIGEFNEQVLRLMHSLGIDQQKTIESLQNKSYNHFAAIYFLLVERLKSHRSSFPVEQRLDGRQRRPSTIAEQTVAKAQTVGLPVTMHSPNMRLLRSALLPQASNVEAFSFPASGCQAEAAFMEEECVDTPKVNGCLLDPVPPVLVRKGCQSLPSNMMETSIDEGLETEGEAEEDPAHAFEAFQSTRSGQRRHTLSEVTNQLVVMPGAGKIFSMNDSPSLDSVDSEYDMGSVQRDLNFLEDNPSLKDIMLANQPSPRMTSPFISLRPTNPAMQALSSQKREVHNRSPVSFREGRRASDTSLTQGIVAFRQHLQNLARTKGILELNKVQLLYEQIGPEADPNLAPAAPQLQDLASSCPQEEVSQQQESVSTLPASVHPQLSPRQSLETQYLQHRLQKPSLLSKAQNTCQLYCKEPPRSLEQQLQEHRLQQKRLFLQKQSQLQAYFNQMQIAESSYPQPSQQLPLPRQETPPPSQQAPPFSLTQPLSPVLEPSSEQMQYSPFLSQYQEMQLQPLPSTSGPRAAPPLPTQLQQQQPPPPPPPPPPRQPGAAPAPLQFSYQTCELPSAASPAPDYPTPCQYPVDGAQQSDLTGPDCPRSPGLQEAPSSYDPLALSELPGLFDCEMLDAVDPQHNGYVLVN
- protocolDetails: radiometric filter-binding kinase assay, Kinase HotSpot
- recordedConditions: compound 0.5 µM; ATP 10 µM
readoutKind: residual activity (%)
// units = %; emit number, no label

// worked examples, residual activity included
molecule=CN(C)C[C@H]1CCn2c(c(C3=C(c4cn(C)c5ccccc45)C(=O)NC3=O)c3ccccc32)C1 datavalue=88.8
molecule=COc1cc2ncc(-c3ccccc3)nc2cc1OC datavalue=93.1
molecule=O=C(Nc1cccc(Nc2cc(Nc3cccc(C(F)(F)F)c3)ncn2)c1)C1CC1 datavalue=89.4

query: Query (molecule): CC(=O)O/N=C1\C(=C2\C(=O)Nc3cc(Br)ccc32)Nc2ccccc21 ; field requested: residual activity
result: 54.6

query: Nc1nccc(-c2c(-c3ccc(F)cc3)ncn2C2CCNCC2)n1 ?
result: 64.7

query: Cn1nc2c3c(cccc31)C(=O)c1ccccc1-2 ?
result: 100

query: CN([C@@H](Cc1ccc(OS(=O)(=O)c2cccc3cnccc23)cc1)C(=O)N1CCN(c2ccccc2)CC1)S(=O)(=O)c1cccc2cnccc12 ?
result: 108

query: COc1ccc(CNC(=O)Nc2ncc([N+](=O)[O-])s2)cc1 ?
result: 89.4

query: Oc1ccc(Nc2nc(-c3ccc(Cl)cc3)cs2)cc1 ?
result: 90.7

query: O=C1NC(=O)C(c2c[nH]c3ccccc23)=C1c1c[nH]c2ccccc12 ?
result: 102
